- Test system: Staphylococcus aureus
- ASSAY: Antibacterial activity against Staphylococcus aureus NCIM 2079 after 18 hrs by disc diffusion method
- Type: functional
Residues, ends and D or L forms follow the SMILES beside them. *: point of attachment. X2 = O=C(c1cc(-c2nc3ccc([N+](=O)[O-])cc3[nH]2)ccc1O)*; X4 = Cc1cc2nc(-c3ccc(C(=O)*)cc3)[nH]c2cc1C
Recorded inhibition zone (IZ), one value per entry.
The answer should read as a number with its unit following.

COMPOUND	inhibition zone (IZ)
O=C(O)CNC(=O)CNC(=O)c1cc(-c2nc3ccc([N+](=O)[O-])cc3[nH]2)ccc1O	9 mm
CC[C@H](C)[C@H](NC(=O)CNC(=O)[C@H](Cc1c[nH]c2ccccc12)NC(=O)c1ccc(-c2nc3cc(C)c(C)cc3[nH]2)cc1)C(=O)N[C@@H](C)C(=O)OC (X4-WGIA-OMe)	10 mm
COC(=O)CNC(=O)[C@H](CC(C)C)NC(=O)[C@@H]1CCCN1C(=O)[C@H](Cc1cnc[nH]1)NC(=O)c1cc(-c2nc3ccc([N+](=O)[O-])cc3[nH]2)ccc1O (X2-HPLG-OMe)	10 mm

Query: Give its inhibition zone (IZ) value. Item: "COC(=O)[C@H](Cc1ccc(O)cc1)NC(=O)[C@H](C)NC(=O)[C@H](Cc1c[nH]c2ccccc12)NC(=O)c1cc(-c2nc3cc(C)c(C)cc3[nH]2)ccc1O"
Result: 10 mm

Query: Can you look up the measured inhibition zone (IZ) of "COC(=O)[C@H](C)NC(=O)[C@@H](NC(=O)[C@H](C)NC(=O)c1cc(-c2nc3cc(C)c(C)cc3[nH]2)ccc1O)C(C)C" for me?
Result: 9 mm

Query: Recorded inhibition zone (IZ) of "Cc1cc2nc(-c3ccc(C(=O)N[C@@H](CCCNC(=N)N[N+](=O)[O-])C(=O)O)cc3)[nH]c2cc1C" , please.
Result: 11 mm

Query: Recorded inhibition zone (IZ) of "COC(=O)[C@H](Cc1cnc[nH]1)NC(=O)c1cc(I)c(-c2nc3cc(C)c(C)cc3[nH]2)c(I)c1" , please.
Result: 12 mm

Query: I have this compound here, "COC(=O)[C@H](Cc1ccc(O)cc1)NC(=O)[C@H](Cc1cnc[nH]1)NC(=O)c1ccc(-c2nc3cc(C)c(C)cc3[nH]2)cc1" , and I need its recorded inhibition zone (IZ).
Result: 10 mm

Query: Quick one: inhibition zone (IZ) of "COC(=O)CNC(=O)[C@H](CC(C)C)NC(=O)c1ccc(-c2nc3cc(C)c(C)cc3[nH]2)cc1" ?
Result: 9 mm

Query: I would be grateful if you could share the reported inhibition zone (IZ) for "COC(=O)[C@H](Cc1c[nH]c2ccccc12)NC(=O)c1cc(-c2nc3ccc([N+](=O)[O-])cc3[nH]2)ccc1O" .
Result: 12 mm

Query: Would you kindly share the measured inhibition zone (IZ) for "COC(=O)[C@H](CCCNC(=N)N[N+](=O)[O-])NC(=O)c1ccc(-c2nc3cc(C)c(C)cc3[nH]2)cc1" ?
Result: 9 mm
